Where do these numbers come from? They come from patent US9771341B2.

# TEST SYSTEM: MAGL (Mus musculus)
# Construct: Proteomes (mouse brain membrane fraction or cell lysates); from tissue; host or cells: mouse brain membrane fraction (or unspecified cell lysates)
# Sequence (O35678 1-303): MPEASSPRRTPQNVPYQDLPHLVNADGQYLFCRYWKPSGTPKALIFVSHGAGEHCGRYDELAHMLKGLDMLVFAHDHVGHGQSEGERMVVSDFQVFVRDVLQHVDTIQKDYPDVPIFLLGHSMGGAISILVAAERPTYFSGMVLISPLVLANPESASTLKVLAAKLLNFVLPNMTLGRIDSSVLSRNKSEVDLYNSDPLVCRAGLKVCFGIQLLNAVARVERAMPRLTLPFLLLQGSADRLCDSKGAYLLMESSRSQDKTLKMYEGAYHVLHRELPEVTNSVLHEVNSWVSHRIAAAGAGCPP
# ASSAY COMMENT: Mouse brain proteomes from inhibitor treated mice, MAGL
# Assay type: in vivo
# CONDITION LABEL: 5 mg/kg oral gavage, C57Bl/6J mice, brain proteome 4 h after administration
Below: a set of entries, each annotated with reported inhibition at 5 mg/kg.

[[record]]
molecule = "C#CCO[C@H]1CCN(c2cc(Cl)ccc2CN2CCN(C(=O)OC(C(F)(F)F)C(F)(F)F)CC2)C1"
test_system = "MAGL (Mus musculus)"
observed_property = "inhibition at 5 mg/kg"
result = "> 75%"


Q: Give the reported inhibition at 5 mg/kg for this molecule. O=C(OC(C(F)(F)F)C(F)(F)F)N1CCN(Cc2ccc(C(F)(F)F)cc2N2CCCC2CO)CC1 (stereo not shown)
Ans: > 75%

Q: Read off the recorded inhibition at 5 mg/kg for CN(C)C(=O)C1CCN(c2cc(C(F)(F)F)ccc2CN2CCN(C(=O)OC(C(F)(F)F)C(F)(F)F)CC2)CC1
Ans: > 75%

Q: Note inhibition at 5 mg/kg for the molecule shown: Cc1ccc(CN2CCN(C(=O)OC(C(F)(F)F)C(F)(F)F)CC2)c(N2CC[C@H](CF)C2)c1
Ans: > 75%
